I'd be grateful if you could share measured activity, negative = cell killing for these entries.
test: Drug repurposing screens with cells derived from glioblastoma tumor samples (AID 1345199); conditions: GBM patient neurospheres viability, ATP luminescence, 48 h; at 46 µM (top of the series); tumour line A; further: on the % scale 0 is the no-effect control and ±100 the full control effect; nearly all actives have a fitted effect of over 40% in size
Records with an inconclusive call do not appear.
Express your answer in %, writing the number without its unit.

Identify activity, negative = cell killing associated with the compound `CC(O)(P(=O)(O)O)P(=O)(O)O`
-26.7

Read the entry `CN(C)/N=N/c1nc[nH]c1C(N)=O` and write its reported activity, negative = cell killing.
-11.7

Assign activity, negative = cell killing to the following record: NC(CS)C(=O)O (stereo not given)
-20.7

# return recorded activity, negative = cell killing for entry `Oc1cc(O)c2c(c1)O[C@H](c1ccc(O)c(O)c1)[C@H](O)C2`
-28.5

Please look at this compound and report its activity, negative = cell killing: `Cc1c(C(C)C)c(=O)n(-c2ccccc2)n1C`
-22.1

Item CCC(C(=O)OCCN(CC)CC)c1ccccc1 (stereo not given) : provide activity, negative = cell killing
-28.5

Return reported activity, negative = cell killing. Input compound: `Cc1ccc(Nc2c(F)cccc2Cl)c(CC(=O)O)c1`
-32.8

Item `CCOc1ccc2nc3cc(N)ccc3c(N)c2c1` : provide activity, negative = cell killing
-14.8

Return value of activity, negative = cell killing for input `CCCn1c(=O)[nH]c(=O)c2[nH]cnc21` , no commentary.
-17.3

Supply reported activity, negative = cell killing belonging to this compound: `Cc1cccn2c(=O)c(-c3nnn[nH]3)cnc12`
-23.8

Output activity, negative = cell killing of `Nc1cc(Cl)c(NC2=NCCN2)c(Cl)c1`
-27.8

Please report the measured activity, negative = cell killing for `C[N+]1(CCCCC[N+]2(C)CCCC2)CCCC1`
-3.4

State its activity, negative = cell killing: `COC(=O)[C@@H]1CC2=CC(=O)CC[C@]2(C)[C@@]23O[C@@H]2C[C@@]2(C)[C@@H](CC[C@@]24CCC(=O)O4)[C@H]13`
-25

Give recorded activity, negative = cell killing. `CC1(C)O[C@@H]2[C@@H](CO[C@@]3(COS(N)(=O)=O)OC(C)(C)O[C@@H]23)O1`
-14.9

Give the reported activity, negative = cell killing for this compound. `CC(=O)OCC(=O)[C@@]1(O)CC[C@H]2[C@@H]3CCC4=CC(=O)C=C[C@]4(C)[C@H]3[C@@H](O)C[C@@]21C`
-4.22

Output activity, negative = cell killing of CCC(NC(C)C)C(O)c1ccc(O)c(O)c1 (stereo not given)
-20.2

State, in one line, measured activity, negative = cell killing of `CC(=O)Nc1c(I)cc(I)c(C(=O)O)c1I`
-31.3

Note activity, negative = cell killing for the compound shown: `O=C1OC2(c3ccc(O)cc3Oc3cc(O)ccc32)c2ccccc21`
-6.74

Specify reported activity, negative = cell killing for the compound shown: `Nc1nc2ncc(CNc3ccc(C(=O)N[C@@H](CCC(=O)O)C(=O)O)cc3)nc2c(=O)[nH]1`
-10.5

Provide only the value of recorded activity, negative = cell killing for `Nc1ccc(/C=C/c2ccc(N)cc2S(=O)(=O)O)c(S(=O)(=O)O)c1`
-15.5

Read off the recorded activity, negative = cell killing for `C=CCc1ccc(O)c(OC)c1`
-22.5

Tell me its activity, negative = cell killing given `CCN1CCN(c2cc3c(cc2F)c(=O)c(C(=O)O)cn3C2CC2)CC1` as the entry.
-9.98

Give the measured activity, negative = cell killing for `COc1cccc(OC)c1C(=O)N[C@@H]1C(=O)N2[C@@H]1SC(C)(C)[C@@H]2C(=O)O`
-15.4

Provide measured activity, negative = cell killing value, entry: `C[C@]12C=CC(=O)C=C1CC[C@@H]1[C@@H]2[C@@H](O)C[C@@]2(C)[C@H]1CC[C@]2(O)C(=O)CO`
-29.3

Retrieve activity, negative = cell killing measured for `O=c1ccc2ccccc2o1` and print it.
-35.1

Using known records, supply activity, negative = cell killing for `NC(CO)(CO)CO`
-13.6

Identify the reported activity, negative = cell killing for the following entry. `NCCC(O)(P(=O)(O)O)P(=O)(O)O`
-19.5

Determine its reported activity, negative = cell killing: `C1CCc2nnnn2CC1`
-28.5

Return value of activity, negative = cell killing for input `CCCC(=O)O[C@]1(C(=O)CO)CC[C@H]2[C@@H]3CCC4=CC(=O)CC[C@]4(C)[C@H]3[C@@H](O)C[C@@]21C` , no commentary.
-2.7

Fill in activity, negative = cell killing for record `CC(=O)Oc1ccc(C(=C2CCCCC2)c2ccc(OC(C)=O)cc2)cc1`
-21.3

Output measured activity, negative = cell killing for this item: CC(O)C(=O)O (stereo not given)
-8.3

Kindly indicate its recorded activity, negative = cell killing. Item: CN=C(NC#N)Nc1ccc(C2=NNC(=O)CC2C)cc1 (stereo not given)
-26.1

Please report the measured activity, negative = cell killing for `CCCCC(=O)O[C@]1(C(=O)CO)CC[C@H]2[C@@H]3CCC4=CC(=O)CC[C@]4(C)[C@H]3[C@@H](O)C[C@@]21C`
-14.6

Input `CC1(C)CCC(NC(=O)[C@@H](N)CCC(=O)O)CC1` , output reported activity, negative = cell killing.
-26.1

# return recorded activity, negative = cell killing for input `COc1cc(C(=S)N2CCOCC2)cc(OC)c1OC`
-25.7

Indicate its recorded activity, negative = cell killing; the compound in question is `NC[C@H]1O[C@H](O[C@H]2[C@H](O)[C@@H](O[C@H]3O[C@H](CO)[C@@H](O)[C@H](N)[C@H]3O)[C@H](N)C[C@@H]2N)[C@H](N)[C@@H](O)[C@@H]1O`
-11.7

Note activity, negative = cell killing for the compound shown: `O=C(O)CCCCC(=O)O`
-0.455

Answer with the recorded activity, negative = cell killing for the compound listed here: `OC[C@@H](O)[C@@H](O[C@@H]1O[C@H](CO)[C@H](O)[C@H](O)[C@H]1O)[C@H](O)[C@@H](O)CO`
-40.2

Quick one: give measured activity, negative = cell killing for `Cc1c(C(N)=O)cc([N+](=O)[O-])cc1[N+](=O)[O-]`
-15.4

Give the reported value of activity, negative = cell killing for this record: `COc1cccc2c1C(=O)c1c(O)c3c(c(O)c1C2=O)C[C@@](O)(C(=O)CO)C[C@@H]3O[C@H]1C[C@H](N)[C@H](O)[C@H](C)O1`
-30.7

---

assay: qHTS of pediatric cancer cell lines to identify multiple opportunities for drug repurposing: Primary screen for NB-EBc1 cells (AID 1347095); details: NB-EBc1 neuroblastoma viability, CellTiter-Glo luminescence, 48 h; series mostly up to 46 µM
Inconclusive results are not listed. Active and inactive are the calls of the source. Calls follow the shape of the dose curve; as a rule, active = well fitted cell-killing curve with a large enough effect; inconclusive = small, poorly fitted or top-dose-only effect; inactive = no such curve, though single readings can be large or run the other way.
Write down one outcome, taken from true (1) for active, false (0) for inactive

Any idea what this test logged for `CCCCC(=O)O[C@]1(C(=O)CO)CC[C@H]2[C@@H]3CCC4=CC(=O)CC[C@]4(C)[C@H]3[C@@H](O)C[C@@]21C` ?
false (0)

I would be grateful if you could indicate the recorded call for `CC1(C)O[C@@H]2[C@@H](CO[C@@]3(COS(N)(=O)=O)OC(C)(C)O[C@@H]23)O1` .
false (0)

Query: recorded result category for `Nc1ccc(C(=O)O)cc1` in this test
false (0)

Outcome logged for `NC[C@H]1O[C@H](O[C@H]2[C@H](O)[C@@H](O[C@H]3O[C@H](CO)[C@@H](O)[C@H](N)[C@H]3O)[C@H](N)C[C@@H]2N)[C@H](N)[C@@H](O)[C@@H]1O` in this assay:
false (0)

Lab log entry: `CCCCOc1cc(C(=O)NCCN(CC)CC)c2ccccc2n1` — outcome as called in the assay?
false (0)

Record request — test call for `CC(C)(C(=O)c1cccnc1)c1cccnc1`
false (0)

For CCOc1ccc(NC(=O)CC(C)O)cc1 (configuration not stated) , what call appears in the results of this test?
false (0)

Test call, this compound: `CC(C)(C)CC(C)(C)c1ccc(O)c(Cc2ccc(Cl)cc2Cl)c1`
true (1)

Could you please tell me the result logged for `COc1cc(/C=C/C(=O)O[C@H]2CC[C@]34C[C@]35CC[C@]3(C)[C@@H]([C@H](C)CCC=C(C)C)CC[C@@]3(C)[C@@H]5CC[C@H]4C2(C)C)ccc1O` in this assay?
false (0)

Which result was noted for this compound in the test: `CCCCOc1ccc(C(=O)CCN2CCCCC2)cc1`
true (1)

Please state the recorded outcome for this compound: `CCCC(=O)O[C@]1(C(=O)CO)CC[C@H]2[C@@H]3CCC4=CC(=O)CC[C@]4(C)[C@H]3[C@@H](O)C[C@@]21C`
false (0)

Short answer needed: outcome of this test for `COc1cc2c(cc1OC)[C@@H]1CC(=O)[C@@H](CC(C)C)CN1CC2` ?
false (0)

What is the recorded call for this compound in the test? CC(Cc1ccccc1)(NC(=O)CN)c1ccccc1 (configuration not stated)
false (0)

Recorded call for `CCCCOc1ccc(OCCCN2CCOCC2)cc1` ?
false (0)

What outcome does the record of this test show for `O=C(Nc1ccc(Oc2ccc(Cl)cc2)c(Cl)c1)c1cc(I)cc(I)c1O` ?
true (1)

I would be grateful if you could indicate the recorded call for `CCOc1ccc2nc3cc(N)ccc3c(N)c2c1` .
false (0)

Name the outcome recorded for `C/C=C/c1ccc(OC)cc1` in the assay.
false (0)

What is the recorded call for this compound in the test? `Cc1c(C(N)=O)cc([N+](=O)[O-])cc1[N+](=O)[O-]`
false (0)

Look up the recorded call for COc1ccc(OC)c(C(O)CNC(=O)CN)c1 (configuration not stated) in this test.
false (0)

I would be grateful if you could indicate the recorded call for `C=C1C[C@H]2[C@@H]3C=C(C)C4=CC(=O)CC[C@]4(C)[C@H]3CC[C@]2(C)[C@@]1(OC(C)=O)C(C)=O` .
false (0)

What did this assay record as the result for `CCC(=O)c1c(O)cc(O)cc1O` ?
false (0)

Entry `O=C1c2ccccc2C(=O)C1c1ccccc1` : call = ?
false (0)

Could you kindly confirm the outcome this assay logged for `COCc1c(C(C)C)nc(C(C)C)c(/C=C/[C@@H](O)C[C@@H](O)CC(=O)O)c1-c1ccc(F)cc1` ?
true (1)

What call does the record list for `OC[C@H]1O[C@H](O[C@]2(CCl)O[C@H](CCl)[C@@H](O)[C@@H]2O)[C@H](O)[C@@H](O)[C@H]1Cl` ?
false (0)

In this assay, the call recorded for `Nc1nc2ncc(CNc3ccc(C(=O)N[C@@H](CCC(=O)O)C(=O)O)cc3)nc2c(=O)[nH]1` was what?
false (0)

What did this assay record as the result for CCCCN1CCCC1C(=O)Nc1c(C)cc(C)cc1C (configuration not stated) ?
false (0)

Per the assay record, what outcome was assigned to `CC(=O)Oc1ccc(C(c2ccc(OC(C)=O)cc2)c2ccccn2)cc1` ?
false (0)

Would you mind telling me which call this test gave `CN1CCN(C(c2ccccc2)c2ccccc2)CC1` ?
false (0)

Please state the recorded outcome for this compound: `COC1=CC(=O)C[C@@H](C)[C@]12Oc1c(Cl)c(OC)cc(OC)c1C2=O`
true (1)

So what was the verdict on `CCCCS(=O)(=O)N[C@@H](Cc1ccc(OCCCCC2CCNCC2)cc1)C(=O)O` in this test?
false (0)

Tell me the recorded outcome of this test for `Cc1cc(O)c(C(C)C)cc1Cl` .
false (0)

What outcome does the record of this test show for O=C(CCN1CCC(c2ccccc2)C1)c1ccc2c(c1)OCCO2 (configuration not stated) ?
true (1)

Please let me know the test result on file for `CC(C)NC[C@@H](O)COc1cccc2ccccc12` .
false (0)

So what was the verdict on `Cc1cc2c(cc1CC(=O)c1sccc1S(=O)(=O)Nc1onc(C)c1Cl)OCO2` in this test?
false (0)

What did the test return for COc1cc2c(cc1OC)C(C(C(=O)N(CCc1ccc(OC)c(OC)c1OC)CCc1ccc(OC)c(OC)c1OC)c1ccccc1)=NCC2 (configuration not stated) ?
false (0)

Can you look up the reported call for `CCN1CCN(c2cc3c(cc2F)c(=O)c(C(=O)O)cn3C2CC2)CC1` for me?
false (0)

Lab log entry: `O=c1ccc2ccccc2o1` — outcome as called in the assay?
false (0)

Entry `NC(CO)(CO)CO` : call = ?
false (0)

Please indicate how the test categorized Cc1ccc(C(=O)C(C)CN2CCCCC2)cc1 (configuration not stated) .
false (0)

Can you look up the reported call for `O=S1(=O)c2cccc3cccc(c23)N1CCCN1CCN(c2ccc(F)cc2)CC1` for me?
false (0)

// return assay outcome for `CC(=O)OCC(=O)[C@@]12N=C(C)O[C@@H]1C[C@H]1[C@@H]3CCC4=CC(=O)C=C[C@]4(C)[C@H]3[C@@H](O)C[C@@]12C`
false (0)

Hi, do you know how `COc1cc(C(=S)N2CCOCC2)cc(OC)c1OC` came out in this test?
false (0)
